Reference source: patent US11214614B2

# Tested system: huLTBP1 proTGFβ1 (Homo sapiens, UniProt P01137+Q14766)
# Sequence (P01137 30-390): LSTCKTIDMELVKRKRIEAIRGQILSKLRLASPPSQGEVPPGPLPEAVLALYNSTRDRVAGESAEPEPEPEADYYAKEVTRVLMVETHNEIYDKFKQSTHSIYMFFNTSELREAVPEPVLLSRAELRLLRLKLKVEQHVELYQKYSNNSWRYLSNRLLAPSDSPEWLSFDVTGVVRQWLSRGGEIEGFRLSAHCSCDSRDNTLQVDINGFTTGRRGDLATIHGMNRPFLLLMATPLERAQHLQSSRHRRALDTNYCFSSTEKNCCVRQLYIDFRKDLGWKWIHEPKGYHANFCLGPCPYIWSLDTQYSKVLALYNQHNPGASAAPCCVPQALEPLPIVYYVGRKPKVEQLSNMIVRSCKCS
# Sequence (Q14766 347-1721 limits assumed): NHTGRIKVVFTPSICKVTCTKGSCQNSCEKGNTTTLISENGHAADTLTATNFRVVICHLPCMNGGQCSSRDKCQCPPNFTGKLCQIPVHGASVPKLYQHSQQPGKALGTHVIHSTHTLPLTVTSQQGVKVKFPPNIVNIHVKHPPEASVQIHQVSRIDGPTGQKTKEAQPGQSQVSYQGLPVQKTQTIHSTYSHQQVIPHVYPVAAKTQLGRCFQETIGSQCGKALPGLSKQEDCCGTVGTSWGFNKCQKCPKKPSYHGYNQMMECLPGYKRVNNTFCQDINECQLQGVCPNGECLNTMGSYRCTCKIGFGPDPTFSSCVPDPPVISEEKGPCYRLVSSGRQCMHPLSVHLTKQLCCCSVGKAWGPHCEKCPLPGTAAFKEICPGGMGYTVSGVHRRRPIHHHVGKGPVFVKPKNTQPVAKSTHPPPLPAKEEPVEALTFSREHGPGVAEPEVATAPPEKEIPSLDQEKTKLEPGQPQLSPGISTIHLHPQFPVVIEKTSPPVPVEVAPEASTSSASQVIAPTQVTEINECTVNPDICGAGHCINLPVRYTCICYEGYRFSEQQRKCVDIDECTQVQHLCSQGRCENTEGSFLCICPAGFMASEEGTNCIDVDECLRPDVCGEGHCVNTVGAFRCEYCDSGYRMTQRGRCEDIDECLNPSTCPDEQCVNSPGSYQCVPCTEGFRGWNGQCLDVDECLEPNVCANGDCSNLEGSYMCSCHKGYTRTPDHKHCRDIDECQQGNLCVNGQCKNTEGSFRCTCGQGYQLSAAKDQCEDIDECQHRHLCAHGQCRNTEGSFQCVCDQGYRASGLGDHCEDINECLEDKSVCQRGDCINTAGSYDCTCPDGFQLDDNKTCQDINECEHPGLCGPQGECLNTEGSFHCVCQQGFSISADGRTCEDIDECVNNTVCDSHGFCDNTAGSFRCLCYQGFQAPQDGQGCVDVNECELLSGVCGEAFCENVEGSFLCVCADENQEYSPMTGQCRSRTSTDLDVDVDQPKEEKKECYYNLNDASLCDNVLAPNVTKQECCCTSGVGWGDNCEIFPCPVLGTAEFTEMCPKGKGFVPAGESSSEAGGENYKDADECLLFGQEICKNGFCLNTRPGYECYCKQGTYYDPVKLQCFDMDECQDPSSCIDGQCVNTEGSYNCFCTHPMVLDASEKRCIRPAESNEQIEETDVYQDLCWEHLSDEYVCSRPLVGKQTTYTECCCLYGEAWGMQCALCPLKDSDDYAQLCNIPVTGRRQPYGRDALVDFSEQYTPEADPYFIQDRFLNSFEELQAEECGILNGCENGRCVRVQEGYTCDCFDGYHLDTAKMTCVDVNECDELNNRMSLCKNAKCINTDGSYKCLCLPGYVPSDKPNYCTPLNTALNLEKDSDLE
# Assay info: SPR (Biacore 8K) monovalent binding kinetics of Fabs, biotinylated antigen captured
# Design: biotin (complex biotinylated)
# Condition label: Fab, huLTBP1 proTGFβ1; SR-AB42-HuFab average of five, SR-AB63-HuFab average of four replicate experiments
Below, each entry is listed alongside its reported kd.
Test readout: kd (s⁻¹)

Molecule	Result units	Value observed
SR-AB47-HuFab (antibody, V domains shown) VH: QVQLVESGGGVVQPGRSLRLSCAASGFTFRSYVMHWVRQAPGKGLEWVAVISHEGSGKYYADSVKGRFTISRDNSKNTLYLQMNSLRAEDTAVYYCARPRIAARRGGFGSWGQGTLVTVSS VL: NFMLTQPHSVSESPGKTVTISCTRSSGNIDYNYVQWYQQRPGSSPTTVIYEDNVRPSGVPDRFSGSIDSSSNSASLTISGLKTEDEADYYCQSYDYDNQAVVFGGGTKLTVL	s⁻¹	0.000136
SR-AB57-HuFab (antibody, V domains shown) VH: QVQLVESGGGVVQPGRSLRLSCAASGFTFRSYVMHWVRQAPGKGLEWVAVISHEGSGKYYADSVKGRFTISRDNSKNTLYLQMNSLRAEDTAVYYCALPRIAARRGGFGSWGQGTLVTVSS VL: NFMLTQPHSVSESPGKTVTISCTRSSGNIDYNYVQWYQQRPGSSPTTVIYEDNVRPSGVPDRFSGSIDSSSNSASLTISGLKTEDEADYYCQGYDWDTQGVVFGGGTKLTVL	s⁻¹	0.000181
SR-AB56-HuFab (antibody, V domains shown) VH: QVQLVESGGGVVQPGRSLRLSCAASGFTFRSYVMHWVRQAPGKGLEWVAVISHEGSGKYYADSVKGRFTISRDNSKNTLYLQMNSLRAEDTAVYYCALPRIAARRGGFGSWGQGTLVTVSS VL: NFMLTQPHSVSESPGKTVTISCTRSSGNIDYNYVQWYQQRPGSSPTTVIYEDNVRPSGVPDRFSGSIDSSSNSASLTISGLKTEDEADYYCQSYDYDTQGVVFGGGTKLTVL	s⁻¹	0.000126
